Each item that follows carries a reported IC50.
Biological target: Sodium Channel Binding Site 2 in Rat Brain Membranes
Conditions: 3H-batrachotoxinin 5 nM, 37° C. 60 minutes, read-out: IC50 (inhibition of specific binding of 3H-batrachotoxinin)

- COMPOUND: "CC(C)c1cccc(C(C)C)c1OCCCNCc1cc(C(C)(C)C)c(O)c(C(C)(C)C)c1 [Compound 4]"
  IC50: "90 nM"
- COMPOUND: "CC(C)(C)c1cc(CNCCCOc2c(Cl)cccc2Cl)cc(C(C)(C)C)c1O [Compound 2]"
  IC50: "105 nM"
- COMPOUND: "Cc1cccc(C)c1OCC(C)N (stereo not drawn) [Mexiletine, mexiletine, reference compound]"
  IC50: "11000 nM"
- COMPOUND: "Cc1cccc(C)c1OCCCNCc1ccc(N2N=CC(C)C2=O)cc1 (stereo not drawn) [Comparative A, reference compound]"
  IC50: "11000 nM"
- COMPOUND: "Cc1cccc(C)c1OCCCNCc1cc(C(C)(C)C)c(O)c(C(C)(C)C)c1 [Compound 8]"
  IC50: "179 nM"
- COMPOUND: "CC(C)(C)c1cc(CNCCCOc2ccncc2)cc(C(C)(C)C)c1O [Compound 7]"
  IC50: "870 nM"

----------
Each item that follows carries a reported IC50.
Biological target: Sodium Channel Binding Site 2 in Rat Brain Membranes
Settings: 3H-batrachotoxinin 5 nM, 37° C. 60 minutes, read-out: IC50 (inhibition of specific binding of 3H-batrachotoxinin)

- MOLECULE: "CC(C)(C)c1cc(CNCCCOc2ccccc2)cc(C(C)(C)C)c1O"
  IC50: "236 nM"
- MOLECULE: "Cc1cccc(C)c1OCC(C)NCc1cc(C(C)(C)C)c(O)c(C(C)(C)C)c1 (stereo not shown)"
  IC50: "134 nM"
- MOLECULE: "CC(C)c1cncc(C(C)C)c1OCCCNCc1cc(C(C)(C)C)c(O)c(C(C)(C)C)c1"
  IC50: "380 nM"
- MOLECULE: "COc1cccc(OC)c1OCCCNCc1cc(C(C)(C)C)c(O)c(C(C)(C)C)c1"
  IC50: "107 nM"
